Biological target: SMARCA2 (Homo sapiens)
Sequence (P51531 whole entry): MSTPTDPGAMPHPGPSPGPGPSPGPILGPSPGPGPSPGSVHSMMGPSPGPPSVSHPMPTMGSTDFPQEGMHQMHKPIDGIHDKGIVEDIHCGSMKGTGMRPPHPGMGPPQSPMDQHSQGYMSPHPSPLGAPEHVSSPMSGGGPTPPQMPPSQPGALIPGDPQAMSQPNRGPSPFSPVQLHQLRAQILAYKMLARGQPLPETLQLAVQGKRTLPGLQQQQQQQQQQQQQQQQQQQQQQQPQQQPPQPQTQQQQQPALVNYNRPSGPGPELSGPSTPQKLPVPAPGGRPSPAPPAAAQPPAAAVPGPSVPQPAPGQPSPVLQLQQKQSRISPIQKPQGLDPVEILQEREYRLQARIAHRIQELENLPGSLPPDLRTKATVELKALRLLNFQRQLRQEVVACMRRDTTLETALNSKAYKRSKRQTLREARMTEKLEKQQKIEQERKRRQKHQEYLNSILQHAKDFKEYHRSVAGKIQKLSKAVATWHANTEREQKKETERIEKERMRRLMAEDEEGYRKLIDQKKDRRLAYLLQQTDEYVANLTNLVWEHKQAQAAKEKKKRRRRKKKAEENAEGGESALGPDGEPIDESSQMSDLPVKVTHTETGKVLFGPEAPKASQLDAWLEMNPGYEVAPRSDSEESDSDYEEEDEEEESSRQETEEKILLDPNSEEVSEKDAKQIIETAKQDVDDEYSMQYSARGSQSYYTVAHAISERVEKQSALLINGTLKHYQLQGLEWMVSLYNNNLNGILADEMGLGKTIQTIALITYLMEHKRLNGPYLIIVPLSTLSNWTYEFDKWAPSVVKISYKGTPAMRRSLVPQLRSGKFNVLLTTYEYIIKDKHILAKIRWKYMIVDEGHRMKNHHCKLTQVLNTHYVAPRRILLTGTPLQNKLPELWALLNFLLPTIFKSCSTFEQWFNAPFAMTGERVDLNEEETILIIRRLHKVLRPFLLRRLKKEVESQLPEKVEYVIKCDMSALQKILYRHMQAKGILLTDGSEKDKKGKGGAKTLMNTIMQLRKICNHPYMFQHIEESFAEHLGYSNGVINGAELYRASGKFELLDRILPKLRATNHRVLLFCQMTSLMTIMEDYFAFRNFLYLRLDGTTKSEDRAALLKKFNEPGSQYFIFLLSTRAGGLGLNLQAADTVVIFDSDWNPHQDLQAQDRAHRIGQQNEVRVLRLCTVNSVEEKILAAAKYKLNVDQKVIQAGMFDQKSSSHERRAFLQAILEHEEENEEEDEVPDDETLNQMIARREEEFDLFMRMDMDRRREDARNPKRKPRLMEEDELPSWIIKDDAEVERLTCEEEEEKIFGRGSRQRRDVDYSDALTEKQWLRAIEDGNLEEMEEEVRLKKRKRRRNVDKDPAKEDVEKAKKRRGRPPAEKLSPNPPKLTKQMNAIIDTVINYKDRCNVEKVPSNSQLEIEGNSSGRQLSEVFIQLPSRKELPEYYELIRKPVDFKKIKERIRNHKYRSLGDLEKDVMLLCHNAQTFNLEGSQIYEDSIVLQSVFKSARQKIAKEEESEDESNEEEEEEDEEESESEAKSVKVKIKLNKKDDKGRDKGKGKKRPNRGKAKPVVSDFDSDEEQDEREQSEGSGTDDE
Experiment: SMARCA2 Western blot MV4-11 degradation
Type: cell-based
Design: SMARCA2 and SMARCA4 protein degradation in MV4-11 cells; endogenous in cells; host or cells: MV4-11
Details: MV4-11 cells, 24 h; read-out: SMARCA2 MSD MV411 degradation 24 h: Mean external-Abs DC50
property name: DC50

Worked set:
INSERT INTO results (molecule, result) VALUES
  ('Cc1ncsc1-c1ccc(CNC(=O)[C@@H]2C[C@@H](O)CN2C(=O)[C@@H](c2cc(OCCCCN3CCC(c4cnc(N5C6CCC5CN(c5cc(-c7ccccc7O)nnc5N)C6)nc4)CC3)no2)C(C)C)cc1 [I-56]', '< 100 nM'),
  ('Cc1ncsc1-c1ccc(CNC(=O)[C@@H]2C[C@@H](O)CN2C(=O)[C@@H](NC(=O)[C@H]2CCC3(CC2)C[C@H](N2CCC(c4cnc(N5C6CCC5CN(c5cc(-c7ccccc7O)nnc5N)C6)nc4)CC2)C3)C(C)(C)C)cc1 (stereo partly drawn) [I-42]', '< 100 nM');

# ---- query molecule ----
Challenge: Give DC50 for Cc1ncsc1-c1ccc(CNC(=O)[C@@H]2C[C@@H](O)CN2C(=O)[C@@H](NC(=O)C2(F)CC2)C(C)(C)C)c(OCCCCCCN2CCC(c3cnc(N4C5CCC4CN(c4cc(-c6ccccc6O)nnc4N)C5)nc3)CC2)c1 [I-75]
Response given: < 100 nM

====

Biological target: SMARCA4 (Homo sapiens, UniProt P51532)
Construct: SMARCA2 and SMARCA4 protein degradation in MV4-11 cells; endogenous in cells; host or cells: MV4-11
Sequence (P51532 whole entry): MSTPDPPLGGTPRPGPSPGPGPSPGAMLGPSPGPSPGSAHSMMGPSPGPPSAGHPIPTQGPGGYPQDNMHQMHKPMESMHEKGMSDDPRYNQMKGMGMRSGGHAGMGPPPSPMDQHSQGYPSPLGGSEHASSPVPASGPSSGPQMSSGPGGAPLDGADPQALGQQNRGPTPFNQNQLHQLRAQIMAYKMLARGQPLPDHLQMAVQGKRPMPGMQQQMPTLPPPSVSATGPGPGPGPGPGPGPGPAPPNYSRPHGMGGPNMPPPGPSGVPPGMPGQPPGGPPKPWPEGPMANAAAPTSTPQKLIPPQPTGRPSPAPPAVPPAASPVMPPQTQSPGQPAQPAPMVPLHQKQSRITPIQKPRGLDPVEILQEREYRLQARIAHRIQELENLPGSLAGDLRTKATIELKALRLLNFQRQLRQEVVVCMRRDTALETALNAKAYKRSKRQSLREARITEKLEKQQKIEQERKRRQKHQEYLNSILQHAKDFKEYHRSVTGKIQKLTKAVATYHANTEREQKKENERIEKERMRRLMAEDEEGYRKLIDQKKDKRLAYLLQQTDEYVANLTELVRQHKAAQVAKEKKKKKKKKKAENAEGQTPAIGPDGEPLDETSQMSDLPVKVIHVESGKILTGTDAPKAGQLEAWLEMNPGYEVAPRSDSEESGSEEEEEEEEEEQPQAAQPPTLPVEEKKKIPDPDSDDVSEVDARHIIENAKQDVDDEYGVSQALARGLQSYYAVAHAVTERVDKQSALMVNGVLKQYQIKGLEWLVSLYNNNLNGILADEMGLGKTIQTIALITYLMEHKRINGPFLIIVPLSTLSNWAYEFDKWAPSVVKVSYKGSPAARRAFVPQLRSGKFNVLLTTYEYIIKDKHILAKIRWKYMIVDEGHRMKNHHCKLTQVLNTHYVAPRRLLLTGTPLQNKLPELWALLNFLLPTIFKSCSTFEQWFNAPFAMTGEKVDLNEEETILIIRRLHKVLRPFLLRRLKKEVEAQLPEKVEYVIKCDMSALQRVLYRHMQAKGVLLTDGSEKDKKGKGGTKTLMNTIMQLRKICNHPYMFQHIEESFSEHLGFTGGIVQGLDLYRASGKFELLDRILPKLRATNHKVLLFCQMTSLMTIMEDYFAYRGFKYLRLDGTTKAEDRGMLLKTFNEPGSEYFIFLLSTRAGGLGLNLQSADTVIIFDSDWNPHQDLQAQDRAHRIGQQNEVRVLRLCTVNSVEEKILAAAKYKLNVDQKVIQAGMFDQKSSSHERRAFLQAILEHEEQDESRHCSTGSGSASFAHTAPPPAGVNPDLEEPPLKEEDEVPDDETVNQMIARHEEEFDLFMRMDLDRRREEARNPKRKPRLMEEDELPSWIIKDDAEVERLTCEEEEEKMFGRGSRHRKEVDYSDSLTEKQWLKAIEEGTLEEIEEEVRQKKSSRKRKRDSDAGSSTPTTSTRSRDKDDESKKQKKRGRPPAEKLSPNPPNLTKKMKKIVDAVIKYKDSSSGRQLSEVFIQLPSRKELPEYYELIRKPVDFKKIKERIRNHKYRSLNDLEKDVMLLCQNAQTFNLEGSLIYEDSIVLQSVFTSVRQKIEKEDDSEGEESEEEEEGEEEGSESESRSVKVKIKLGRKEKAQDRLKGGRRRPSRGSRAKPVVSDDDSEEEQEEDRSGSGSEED
Experiment: SMARCA4 Western blot MV4-11 degradation
Type: cell-based
Settings: MV4-11, MV4-11 cells, 24 h; read-out: SMARCA4 MSD MV411 degradation 24 h: average Dmax %
Would you kindly list Dmax for each of these molecules?

Example cases with answers are listed next.
INSERT INTO measurements (molecule, property_name, result) VALUES
  ('Cn1nccc1-c1ccc(CNC(=O)[C@@H]2C[C@@H](O)CN2C(=O)[C@@H](NC(=O)[C@H]2CC[C@H](c3cnc(N4C5CCC4CN(c4cc(-c6ccccc6O)nnc4N)C5)nc3)CC2)C(C)(C)C)cc1 [I-68]', 'Dmax', '> 90%'),
  ('Cc1ncsc1-c1ccc(CNC(=O)[C@@H]2C[C@@H](O)CN2C(=O)[C@H](c2cc(OCCCN3CCC(c4cnc(N5C6CCC5CN(c5cc(-c7ccccc7O)nnc5N)C6)nc4)CC3)no2)C(C)C)cc1 [I-52]', 'Dmax', '> 90%');

I need Dmax for every entry listed below, if you could help.
1. Cc1ncsc1-c1ccc(CNC(=O)[C@@H]2C[C@@H](O)CN2C(=O)C(c2cc(OCCCOCCCN3CCC(Cn4cc(-c5cc(-c6ccccc6O)nnc5N)cn4)CC3)no2)C(C)C)cc1 (some centres unmarked) [I-21]
2. Cc1ncsc1-c1ccc(CNC(=O)[C@@H]2C[C@@H](O)CN2C(=O)C(c2cc(OCCN3CCC(O[C@H]4C[C@H](Oc5cc(N6C7CCC6CN(c6cc(-c8ccccc8O)nnc6N)C7)ccn5)C4)CC3)no2)C(C)C)cc1 (some centres unmarked) [I-22]
3. Cc1ncsc1-c1ccc(CNC(=O)[C@@H]2C[C@H](O)CN2C(=O)[C@@H](NC(=O)[C@H]2CC3(C2)C[C@H](N2CCC(c4cnc(N5C6CCC5CN(c5cc(-c7ccccc7O)nnc5N)C6)nc4)CC2)C3)C(C)(C)C)cc1 (some centres unmarked) [I-79]

Response given:
1: 70 to 90%; 2: > 90%; 3: < 50%

====

Give measured DC50 for each item. Keep answers brief.
Molecular target: SMARCA4 (Homo sapiens)
Construct: SMARCA2 and SMARCA4 protein degradation in MV4-11 cells; endogenous in cells; host or cells: MV4-11
Experiment: SMARCA4 Western blot MV4-11 degradation
Type: cell-based
Conditions: MV4-11 cells, 24 h; read-out: SMARCA4 MSD MV411 degradation 24 h: Mean external-Abs DC50

INSERT INTO measurements (compound, system_tested, property_name, result) VALUES
  ('Cc1nccn1-c1ccc(CNC(=O)[C@@H]2C[C@@H](O)CN2C(=O)[C@@H](NC(=O)[C@H]2CC3(C2)C[C@H](N2CCC(c4cnc(N5C6CCC5CN(c5cc(-c7ccccc7O)nnc5N)C6)nc4)CC2)C3)C(C)(C)C)cc1 (some centres unmarked) [I-33]', 'SMARCA4 (Homo sapiens)', 'DC50', '> 1000 nM');

We next turn to a different compound, shown below.
Challenge: Supply DC50 value. Item: Cc1n[nH]c(C)c1-c1ccc(CNC(=O)[C@@H]2C[C@@H](O)CN2C(=O)[C@@H](NC(=O)[C@H]2CC3(C2)C[C@H](N2CCC(c4cnc(N5C6CCC5CN(c5cc(-c7ccccc7O)nnc5N)C6)nc4)CC2)C3)C(C)(C)C)cc1 (some centres unmarked) [I-31]
Response given: > 1000 nM

====

Molecular target: UniProtKB P51531
Test: SMARCA2 Western blot MV4-11 degradation
Format: cell-based
Set-up: SMARCA2 and SMARCA4 protein degradation in MV4-11 cells; endogenous in cells; host or cells: MV4-11
Details: MV4-11, MV4-11 cells, 24 h; read-out: SMARCA2 MSD MV411 degradation 24 h: average Dmax %
property name: Dmax

INSERT INTO results (compound, property_name, result) VALUES
  ('Cc1ncsc1-c1ccc(CNC(=O)[C@@H]2C[C@@H](O)CN2C(=O)C(c2cc(N3CCC(CCCN4CCC(c5cnc(N6C7CCC6CN(c6cc(-c8ccccc8O)nnc6N)C7)nc5)CC4)CC3)no2)C(C)C)cc1 (stereo partly drawn)', 'Dmax', '> 90%'),
  ('Cc1ncsc1-c1ccc(CNC(=O)[C@@H]2C[C@@H](O)CN2C(=O)C(c2cc(OCCCOCCCN3CCC(Cn4cc(-c5cc(-c6ccccc6O)nnc5N)cn4)CC3)no2)C(C)C)cc1 (stereo partly drawn)', 'Dmax', '> 90%'),
  ('Cc1ncsc1-c1ccc(CNC(=O)[C@@H]2C[C@@H](O)CN2C(=O)[C@@H](NC(=O)[C@H]2CCC3(CC2)C[C@H](N2CCC(c4cnc(N5C6CCC5CN(c5cc(-c7ccccc7O)nnc5N)C6)nc4)CC2)C3)C(C)(C)C)cc1 (stereo partly drawn)', 'Dmax', '70 to 90%'),
  ('Cc1ncsc1-c1ccc(CNC(=O)[C@@H]2C[C@@H](O)CN2C(=O)[C@@H](NC(=O)CN(C)Cc2cnc(N3C4CCC3CN(c3cc(-c5ccccc5O)nnc3N)C4)nc2)C(C)(C)C)cc1', 'Dmax', '> 90%'),
  ('Cc1ncsc1-c1ccc(CNC(=O)[C@@H]2C[C@@H](O)CN2C(=O)[C@@H](NC(=O)N2CCC(N3CCC(c4cnc(N5C6CCC5CN(c5cc(-c7ccccc7O)nnc5N)C6)nc4)CC3)CC2)C(C)(C)C)cc1', 'Dmax', '< 50%'),
  ('Cn1nccc1-c1ccc(CNC(=O)[C@@H]2C[C@@H](O)CN2C(=O)[C@@H](NC(=O)[C@H]2CC3(C2)C[C@H](N2CCC(c4cnc(N5C6CCC5CN(c5cc(-c7ccccc7O)nnc5N)C6)nc4)CC2)C3)C(C)(C)C)cc1 (stereo partly drawn)', 'Dmax', '70 to 90%'),
  ('Cc1ncsc1-c1ccc(CNC(=O)[C@@H]2C[C@@H](O)CN2C(=O)C(c2cc(OCCN3CCC(c4cnc(N5C6CCC5CN(c5cc(-c7ccccc7O)nnc5N)C6)nc4)CC3)no2)C(C)C)cc1 (stereo partly drawn)', 'Dmax', '> 90%'),
  ('Cc1ncsc1-c1ccc(CNC(=O)[C@@H]2C[C@@H](O)CN2C(=O)[C@@H](NC(=O)[C@H]2CC3(C2)C[C@H](N2CCC(Oc4ccc(N5C6CCC5CN(c5cc(-c7ccccc7O)nnc5N)C6)cn4)CC2)C3)C(C)(C)C)cc1 (stereo partly drawn)', 'Dmax', '70 to 90%');

Challenge: Output measured Dmax for this item: Cn1nccc1-c1ccc(CNC(=O)[C@@H]2C[C@@H](O)CN2C(=O)[C@@H](NC(=O)[C@H]2CC[C@H](c3cnc(N4C5CCC4CN(c4cc(-c6ccccc6O)nnc4N)C5)nc3)CC2)C(C)(C)C)cc1
Response given: > 90%

====

Molecular target: SMARCA4 (Homo sapiens, UniProt P51532)
Construct: SMARCA2 and SMARCA4 protein degradation in MV4-11 cells; endogenous in cells; host or cells: MV4-11
Assay: SMARCA4 Western blot MV4-11 degradation
Type: cell-based
Conditions: MV4-11 cells, 24 h; read-out: SMARCA4 MSD MV411 degradation 24 h: Mean external-Abs DC50
property name: DC50

Look over these answered cases.
INSERT INTO assay_data (compound, system_tested, property_name, result) VALUES
  ('Cc1ncsc1-c1ccc(CNC(=O)[C@@H]2C[C@@H](O)CN2C(=O)[C@@H](NC(=O)C2CC3(C2)CC(N2CCC(Oc4cc(N5C6CCC5CN(c5cc(-c7ccccc7O)nnc5N)C6)ccn4)CC2)C3)C(C)(C)C)cc1 (some centres unmarked) [I-38]', 'SMARCA4 (Homo sapiens, UniProt P51532)', 'DC50', '> 1 µM'),
  ('Cc1ncsc1-c1ccc(CNC(=O)[C@@H]2C[C@@H](O)CN2C(=O)[C@@H](NC(=O)[C@H]2CC3(C2)C[C@H](N2CC4(CN(c5cnc(N6C7CCC6CN(c6cc(-c8ccccc8O)nnc6N)C7)nc5)C4)C2)C3)C(C)(C)C)cc1 (some centres unmarked) [I-12]', 'SMARCA4 (Homo sapiens, UniProt P51532)', 'DC50', '> 1 µM'),
  ('Cn1nccc1-c1ccc(CNC(=O)[C@@H]2C[C@@H](O)CN2C(=O)[C@@H](NC(=O)[C@H]2CC3(C2)C[C@H](N2CCC(c4cnc(N5C6CCC5CN(c5cc(-c7ccccc7O)nnc5N)C6)nc4)CC2)C3)C(C)(C)C)cc1 (some centres unmarked) [I-36]', 'SMARCA4 (Homo sapiens, UniProt P51532)', 'DC50', '> 1 µM');

# batch size: 6; output DC50 per entry
1. Cc1ncsc1-c1ccc([C@H](C)NC(=O)[C@@H]2C[C@@H](O)CN2C(=O)[C@@H](NC(=O)[C@H]2CC3(C2)C[C@H](N2CCC(c4cnc(N5C6CCC5CN(c5cc(-c7ccccc7O)nnc5N)C6)nc4)CC2)C3)C(C)(C)C)cc1 (single isomer, unassigned) [I-1]
2. Cc1ncsc1-c1ccc(CNC(=O)[C@@H]2C[C@@H](O)CN2C(=O)C(c2cc(OCCN3CCC(O[C@H]4C[C@H](Oc5cc(N6C7CCC6CN(c6cc(-c8ccccc8O)nnc6N)C7)ccn5)C4)CC3)no2)C(C)C)cc1 (some centres unmarked) [I-22]
3. Cc1ncsc1-c1ccc(CNC(=O)[C@@H]2C[C@@H](O)CN2C(=O)[C@@H](NC(=O)[C@H]2CC3(C2)C[C@H](N2CCN(c4cnc(N5C6CCC5CN(c5cc(-c7ccccc7O)nnc5N)C6)nc4)CC2)C3)C(C)(C)C)cc1 (single isomer, unassigned) [I-9]
4. Cc1ncsc1-c1ccc(CNC(=O)[C@@H]2C[C@H](O)CN2C(=O)[C@@H](NC(=O)[C@H]2CC3(C2)C[C@H](N2CCC(c4cnc(N5C6CCC5CN(c5cc(-c7ccccc7O)nnc5N)C6)nc4)CC2)C3)C(C)(C)C)cc1 (some centres unmarked) [I-80]
5. Cc1ncsc1-c1ccc(CNC(=O)[C@@H]2C[C@@H](O)CN2C(=O)[C@@H](NC(=O)CN(C)Cc2cnc(N3C4CCC3CN(c3cc(-c5ccccc5O)nnc3N)C4)nc2)C(C)(C)C)cc1 [I-37]
6. Cc1ncsc1-c1ccc(CNC(=O)[C@@H]2C[C@@H](O)CN2C(=O)[C@@H](NC(=O)N2CCC(N3CCC(c4cnc(N5C6CCC5CN(c5cc(-c7ccccc7O)nnc5N)C6)nc4)CC3)CC2)C(C)(C)C)cc1 [I-59]

Response given:
1. < 0.1 µM
2. > 1 µM
3. > 1 µM
4. > 1 µM
5. < 0.1 µM
6. > 1 µM

Please report DC50 for every entry that follows.
1. Cc1ncsc1-c1ccc(C2(NC(=O)[C@@H]3C[C@@H](O)CN3C(=O)[C@@H](NC(=O)[C@H]3CC4(C3)C[C@H](N3CCC(c5cnc(N6C7CCC6CN(c6cc(-c8ccccc8O)nnc6N)C7)nc5)CC3)C4)C(C)(C)C)CC2)cc1 (single isomer, unassigned) [I-3]
2. Cn1nccc1-c1ccc(CNC(=O)[C@@H]2C[C@@H](O)CN2C(=O)[C@@H](NC(=O)[C@H]2CC3(C2)C[C@H](N2CCC(c4cnc(N5C6CCC5CN(c5cc(-c7ccccc7O)nnc5N)C6)nc4)CC2)C3)C(C)(C)C)cc1 (some centres unmarked) [I-35]

Response given:
1. < 0.1 µM
2. > 1 µM
